Target: phosphodiesterase I from Crotalus adamanteus venom (Crotalus adamanteus, UniProt J3SEZ3)
Sequence (J3SEZ3 24-851 limits assumed): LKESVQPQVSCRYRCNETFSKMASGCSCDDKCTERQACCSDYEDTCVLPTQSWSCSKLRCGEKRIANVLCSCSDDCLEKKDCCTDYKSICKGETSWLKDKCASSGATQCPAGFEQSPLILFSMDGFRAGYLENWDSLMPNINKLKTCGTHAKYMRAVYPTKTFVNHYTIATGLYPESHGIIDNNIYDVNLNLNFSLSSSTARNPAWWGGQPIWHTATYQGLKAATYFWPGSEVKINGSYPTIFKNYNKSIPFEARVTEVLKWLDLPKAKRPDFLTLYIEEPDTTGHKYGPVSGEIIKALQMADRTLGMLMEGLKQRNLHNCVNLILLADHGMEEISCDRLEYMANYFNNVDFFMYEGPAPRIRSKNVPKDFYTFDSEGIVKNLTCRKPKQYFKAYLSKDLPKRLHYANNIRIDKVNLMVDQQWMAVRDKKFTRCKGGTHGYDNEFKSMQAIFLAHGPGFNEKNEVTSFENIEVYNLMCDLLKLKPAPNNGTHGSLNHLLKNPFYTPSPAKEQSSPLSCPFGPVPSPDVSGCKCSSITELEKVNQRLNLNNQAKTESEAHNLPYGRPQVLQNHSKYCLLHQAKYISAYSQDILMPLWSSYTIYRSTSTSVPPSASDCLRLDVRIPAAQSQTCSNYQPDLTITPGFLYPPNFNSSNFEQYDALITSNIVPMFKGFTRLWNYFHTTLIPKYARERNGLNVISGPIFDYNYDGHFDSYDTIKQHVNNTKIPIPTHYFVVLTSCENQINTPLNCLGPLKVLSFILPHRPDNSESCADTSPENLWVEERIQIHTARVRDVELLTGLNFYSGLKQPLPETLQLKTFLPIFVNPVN
Assay: biochemical
MEASURED_PARAMETER: IC50 (µM)

> print(dat)
                                   compound  measured.parameter  experimental.result
1  COc1c(O)cc2oc(-c3ccc(O)c(O)c3)c(O)c(=O)c2c1O                IC50                 95.2
2  COc1cc(-c2oc3cc(O)c(OC)c(O)c3c(=O)c2O)ccc1O                IC50                  149

---

Recorded IC50 values for a group of compounds are listed next.
Biological target: UniProt:P07374
Sequence (P07374 whole entry, looked up): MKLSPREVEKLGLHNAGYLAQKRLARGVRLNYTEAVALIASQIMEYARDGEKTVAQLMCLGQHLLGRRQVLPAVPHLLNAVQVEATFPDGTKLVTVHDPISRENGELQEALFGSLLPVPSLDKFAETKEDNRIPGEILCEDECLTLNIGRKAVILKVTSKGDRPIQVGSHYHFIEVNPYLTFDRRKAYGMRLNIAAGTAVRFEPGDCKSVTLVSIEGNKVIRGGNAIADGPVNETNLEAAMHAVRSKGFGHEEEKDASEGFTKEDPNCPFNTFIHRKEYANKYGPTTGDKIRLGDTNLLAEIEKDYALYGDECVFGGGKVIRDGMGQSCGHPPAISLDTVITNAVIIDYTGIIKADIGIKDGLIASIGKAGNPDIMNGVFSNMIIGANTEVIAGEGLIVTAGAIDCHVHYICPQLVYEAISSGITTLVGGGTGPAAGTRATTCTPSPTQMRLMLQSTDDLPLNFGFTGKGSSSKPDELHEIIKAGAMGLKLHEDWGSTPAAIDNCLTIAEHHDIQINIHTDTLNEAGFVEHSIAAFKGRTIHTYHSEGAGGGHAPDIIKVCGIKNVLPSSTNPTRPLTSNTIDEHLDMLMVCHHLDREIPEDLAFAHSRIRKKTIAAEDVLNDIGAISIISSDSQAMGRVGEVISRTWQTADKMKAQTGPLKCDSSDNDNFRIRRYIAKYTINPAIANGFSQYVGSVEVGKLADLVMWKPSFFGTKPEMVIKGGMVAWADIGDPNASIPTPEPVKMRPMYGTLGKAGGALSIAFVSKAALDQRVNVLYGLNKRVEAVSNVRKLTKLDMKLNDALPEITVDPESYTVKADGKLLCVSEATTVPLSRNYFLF
MEASURED_PARAMETER: IC50 (µM)

> print(dat)
                                   compound  system.under.test  unit.of.measurement  experimental.result
1  COc1c(O)cc2oc(-c3ccc(O)c(O)c3)c(O)c(=O)c2c1O [compound 2]     UniProt:P07374                   µM                   19
2  COc1cc(-c2oc3cc(O)c(OC)c(O)c3c(=O)c2O)ccc1O [compound 1]     UniProt:P07374                   µM                 15.3
